- Tested on: MOLM-13
- experiment_notes: Proliferation inhibition, CellTiter-Glo, MOLM-13
- Format: cell-based, human
- condition_label: Homo sapiens, 96 h; MOLM-13 cells, IC50 (4 days), CellTiter-Glo; read-out: MOLM-13 IC50
pIC50: −log10 of the molar value.
measured_quantity: pIC50

// worked examples, pIC50 included
Looking up "C=CC(=O)N(C)[C@H](C)C(=O)NCCc1cccc(Nc2nc(C3CC3)c(CC)nc2C(N)=O)c1" , I found its pIC50 recorded as 7.00 to 8.00

Looking up "CCc1nc(Nc2cccc([C@@H](C)CNC(=O)CN(C)C(=O)/C=C/CN3CCC3)c2)c(C(N)=O)nc1CC" , I found its pIC50 recorded as < 6.30

Looking up "CCc1nc(C(N)=O)c(Nc2cc(F)cc(CCNC(=O)CN(C)C(=O)/C=C/CN3CCC3)c2)nc1C1CC1" , I found its pIC50 recorded as 8.00 to 9.00

Looking up "CCOc1nc(Nc2cccc(CCNC(=O)CN(C)C(=O)/C=C/CN3CCC3)c2)c(C(N)=O)nc1CC" , I found its pIC50 recorded as 8.00 to 9.00

Looking up "CCc1nc(C(N)=O)c(Nc2cccc(CCNC(=O)[C@H](C)N(C)C(=O)/C=C/CN3CCC3)c2)nc1N(C)C" , I found its pIC50 recorded as > 9.00

Looking up "CCc1nc(C(N)=O)c(Nc2ccc(F)c(CCNC(=O)CN(C)C(=O)/C=C/CN3CCC3)c2)nc1C1CC1" , I found its pIC50 recorded as 8.00 to 9.00

// moving on: another record for pIC50
Looking up "CCc1nc(C(N)=O)c(Nc2cccc(CCNC(=O)[C@H](C)N(C)C(=O)/C=C/CNC)c2)nc1C1CC1" , I found its pIC50 recorded as 8.00 to 9.00

====

- System: MOLM-13
- experiment_notes: Proliferation inhibition, CellTiter-Glo, MOLM-13
- Assay type: cell-based, human
- condition_label: Homo sapiens, 96 h; MOLM-13 cells, IC50 (4 days), CellTiter-Glo; read-out: MOLM-13 IC50
Listed next: entries and their corresponding IC50.

Looking up CCc1cc(C(N)=O)c(Nc2cncc(CCNC(=O)[C@H](C)N(C)C(=O)/C=C/CN(C)C)c2)nc1C1CC1 [Compound 320] , I found its IC50 recorded as 100 to 500 nM

Looking up CCc1nc(Nc2cccc(CCNC(=O)[C@H](C)N(C)C(=O)/C=C/CN(C)C)c2)c(C(N)=O)nc1CC [Compound 243] , I found its IC50 recorded as 1 to 10 nM

Looking up C=CC(=O)N(C)[C@@H](C)C(=O)NCCc1cccc(Nc2nc(C3CC3)c(C)nc2C(N)=O)c1 [Compound 222] , I found its IC50 recorded as 10 to 100 nM

// moving on: another record for IC50
Looking up CCc1nc(C(N)=O)c(Nc2cccc(CCNC(=O)[C@H](C)N(C)C(=O)/C=C/CN(C)C)c2)nc1C [Compound 142A] , I found its IC50 recorded as 1 to 10 nM

====

- System: K-562
- experiment_notes: Proliferation inhibition, CellTiter-Glo, K-562
- Format: cell-based, human
- condition_label: Homo sapiens, K562, 96 h; K-562 cells, IC50 (4 days), CellTiter-Glo; read-out: K-562 IC50
measured_quantity: IC50

// worked examples, IC50 included
Looking up "CC#CC(=O)N(C)[C@@H](C)C(=O)NCCc1cccc(Nc2nc(N(C)C)c(CC)nc2C(N)=O)c1" , I found its IC50 recorded as > 500 nM

Looking up "C=CC(=O)N(C)CC(=O)NCCc1cc(Nc2nc(N(C)CC)c(CC)nc2C(N)=O)ccn1" , I found its IC50 recorded as > 500 nM

Looking up "C=C(F)C(=O)N(C)[C@@H](C)C(=O)NCCc1cccc(Nc2nc(C3CC3)c(CC)nc2C(N)=O)c1" , I found its IC50 recorded as > 500 nM

Looking up "CCc1nc(Nc2cccc([C@H](C)CNC(=O)CN(C)C(=O)/C=C/CN3CCC3)c2)c(C(N)=O)nc1CC" , I found its IC50 recorded as > 500 nM

Looking up CCc1nc(C(N)=O)c(Nc2cccc(CCNC(=O)CN(C)C(=O)/C=C/CN3CCC3)c2)nc1N(C)CC [Compound 516A] , I found its IC50 recorded as > 500 nM

Looking up "[2H]C([2H])([2H])N(C/C=C/C(=O)N(C)[C@@H](C)C(=O)NCCc1cccc(Nc2nc(N(C)C(C)C)c(CC)nc2C(N)=O)c1)C([2H])([2H])[2H]" , I found its IC50 recorded as > 500 nM

Looking up "Cc1nc(C(N)=O)c(Nc2cccc(CCNC(=O)[C@H](C)N(C)C(=O)/C=C/CN(C)C)c2)nc1C1CC1" , I found its IC50 recorded as > 500 nM

Looking up "CCc1nc(Nc2cccc(CCNC(=O)[C@H](C)N(C)C(=O)/C=C/CN(C)C)c2)c(C(N)=O)nc1C" , I found its IC50 recorded as > 500 nM

***
Looking up "CCc1nc(C(N)=O)c(Nc2cccc(CCNC(=O)[C@H](C)N(C)C(=O)C#CCN(C)C)c2)nc1C" , I found its IC50 recorded as > 500 nM

====

- Tested on: MOLM-13
- experiment_notes: Proliferation inhibition, CellTiter-Glo, MOLM-13
- Assay type: cell-based, human
- condition_label: Homo sapiens, 96 h; MOLM-13 cells, IC50 (4 days), CellTiter-Glo; read-out: MOLM-13 IC50
pIC50: −log10 of the molar value.
Listed next: entries and their corresponding pIC50.

Looking up "CCc1nc(C(N)=O)c(Nc2cccc([C@H](C)CNC(=O)[C@H](C)N(C)C(=O)/C=C/CN(C)C)c2)nc1C" , I found its pIC50 recorded as 6.30 to 7.00

Looking up "CCc1nc(C(N)=O)c(Nc2cccc(CCNC(=O)CN(C)C(=O)/C=C/CN(C)C)c2)nc1N(C)CC" , I found its pIC50 recorded as > 9.00

Looking up "C=CC(=O)N(C)CC(=O)NC[C@H](C)c1cccc(Nc2nc(N(C)CC)c(CC)nc2C(N)=O)c1" , I found its pIC50 recorded as 8.00 to 9.00

Looking up "CCc1nc(C(N)=O)c(Nc2cccc(CCNC(=O)[C@H](C)N(C)C(=O)/C=C/CN(C)C)c2)nc1NC(C)C" , I found its pIC50 recorded as > 9.00

Looking up "CC#CC(=O)N(C)[C@@H](C)C(=O)NCCc1cccc(Nc2nc(C3CC3)c(CC)nc2C(N)=O)c1" , I found its pIC50 recorded as 7.00 to 8.00

***
Looking up "CCc1nc(C(N)=O)c(Nc2ccnc(CCNC(=O)CN(C)C(=O)/C=C/CN3CCC3)c2)nc1C1CC1" , I found its pIC50 recorded as 8.00 to 9.00

Looking up "CCc1nc(C(N)=O)c(Nc2cccc(CCNC(=O)[C@H](C)N(C)C(=O)/C=C/CNC)c2)nc1NC(C)C" , I found its pIC50 recorded as > 9.00

====

Listed next: entries and their corresponding pIC50.
- Tested on: MOLM-13
- experiment_notes: Proliferation inhibition, CellTiter-Glo, MOLM-13
- Format: cell-based, human
- condition_label: Homo sapiens, 96 h; MOLM-13 cells, IC50 (4 days), CellTiter-Glo; read-out: MOLM-13 IC50
- Method: The proliferation inhibitory effect was investigated in human AML cell lines MOLM-13 (AddexBio: C0003003) and MV-4-11 (ATCC: CRL-9591), and CML cell line K-652 (ATCC: CRL-3343). […] Test compounds were dissolved at 10 mM in DMSO (Sigma catalog no. D8418; purity≥99.9%) and stored at −20° C. Eight concentrations of test compound were assessed in duplicate in an individual test occasion in parallel in the selected cell lines. […]
pIC50: −log10 of the molar value.

// worked examples, pIC50 included
Looking up "CCc1nc(C(N)=O)c(Nc2cccc(CCNC(=O)[C@H](C)N(C)C(=O)/C=C/CNC)c2)nc1C" , I found its pIC50 recorded as 8.00 to 9.00

Looking up "Cc1nc(C(N)=O)c(Nc2cccc(CCNC(=O)[C@H](C)N(C)C(=O)/C=C/CN(C)C)c2)nc1C(C)C" , I found its pIC50 recorded as 8.00 to 9.00

Looking up "CCc1nc(C(N)=O)c(Nc2cccc(CCNC(=O)[C@H](C)N(C)C(=O)/C=C/CNC)c2)nc1N(C)C(C)C" , I found its pIC50 recorded as > 9.00

Looking up "CCc1nc(C(N)=O)c(Nc2ccnc(CCNC(=O)[C@H](C)N(C)C(=O)/C=C/CN(C)C)c2)nc1N(C)C(C)C" , I found its pIC50 recorded as > 9.00

Looking up "Cc1nc(C(N)=O)c(Nc2cccc(CCNC(=O)[C@H](C)N(C)C(=O)/C=C/CN(C)C)c2)nc1N(C)C" , I found its pIC50 recorded as 8.00 to 9.00

***
Looking up "CCc1nc(C(N)=O)c(Nc2cccc(CCNC(=O)[C@H](C)N(C)C(=O)/C=C/CN(C)C)c2)nc1N(C)C(C)C" , I found its pIC50 recorded as > 9.00

Looking up Cc1nc(C(N)=O)c(Nc2cccc(CCNC(=O)C(C)N(C)C(=O)/C=C/CN(C)C)c2)nc1C1CC1 (stereo not shown) , I found its pIC50 recorded as 7.00 to 8.00
